assay: Chromatographic hydrophobicity index (CHI) by RP-HPLC in buffered acetonitrile; assay type: physicochemical; set-up: key: CHI = φ0 (isocratic hydrophobicity index), = A·tR + B; ACN % scale; details: buffered acetonitrile pH 7.0, Eq. (3) calibrated against published CHI
Labelling field: enter 1 if recorded CHIACN2 is less than 70. Enter 0 if it equals or exceeds that cut-off.

[[record]]
compound = "CC(C)(O)/C=C/C(=O)C(C)(O)C1C(O)CC2(C)C3CC=C4C(CC(=O)C(O)C4(C)C)C3(C)C(=O)CC12C (centres unmarked)"
label = 1


In plain terms, does CC(C)OC1=CC2C(=CCC3C2(C)C(=O)CC2(C)C(C(C)(O)C(=O)C=CC(C)(C)O)C(O)CC32C)C(C)(C)C1=O (centres unmarked) come in under 70 for CHIACN2?
0

Is 70 strictly greater than the compound's reported CHIACN2? compound: COC1=CC2C(=CCC3C2(C)C(=O)CC2(C)C(C(C)(O)C(=O)CCC(C)(C)O)C(O)CC32C)C(C)(C)C1=O (centres unmarked)
1

Is CHIACN2 strictly under 70 for the entry CCOC1=CC2C(=CCC3C2(C)C(=O)CC2(C)C(C(C)(O)C(=O)C=CC(C)(C)O)C(O)CC32C)C(C)(C)C1=O (centres unmarked) ?
0

Take the compound CCCOC1=CC2C(=CCC3C2(C)C(=O)CC2(C)C(C(C)(O)C(=O)C=CC(C)(C)OC(C)=O)C(O)CC32C)C(C)(C)C1=O (centres unmarked) and say whether its CHIACN2 is less than 70.
0
